# key: entry, value: Log kw IAM
condition_info: pH 7.0, extrapolated to 0% acetonitrile
// return a plain number; no unit text

**Q:** Can you share its Log kw IAM? I mean this compound: Cc1sc2c(c1C)C(c1ccc(Cl)cc1)=N[C@@H](CC(=O)O)c1nnc(C)n1-2
**A:** 0.80

###

procedure_summary: Thermodynamic solubility, shake-flask, 10 mM PBS (0.15 M KCl) pH 7, 25 °C, 1 h, HPLC-UV
condition_info: 25 °C, pH 7, aqueous buffer, thermodynamic from solid, Solubility average, thermodynamic, shake-flask, pH 7, 25 °C, 1 h
property_measured: log10(solubility at 1 h) (log10 of the value in µM)
Please be aware that the numbers have been log10-transformed from solubility at 1 h in µM.

- compound: "CC(=O)N1c2ccc(-c3ccc(C(=O)NCCOCCOCCOCC(=O)N[C@H](C(=O)N4C[C@H](O)C[C@H]4C(=O)NCc4ccc(-c5scnc5C)cc4)C(C)(C)C)cc3)cc2[C@H](Nc2ccc(Cl)cc2)C[C@@H]1C [MZP-54]"
  log10(solubility at 1 h): -0.29
- compound: "Cc1ncsc1-c1ccc(CNC(=O)[C@@H]2C[C@@H](O)CN2C(=O)[C@@H](NC(=O)COCCOCCOCCOCCOCCOCC(=O)N[C@H](C(=O)N2C[C@H](O)C[C@H]2C(=O)NCc2ccc(-c3scnc3C)cc2)C(C)(C)C)C(C)(C)C)cc1 [CM11]"
  log10(solubility at 1 h): 2.80
- compound: "COc1cc(-c2cn(C)c(=O)c3cnccc23)cc(OC)c1CN1CCN(CCCCCOc2cc(-c3scnc3C)ccc2CNC(=O)[C@@H]2C[C@@H](O)CN2C(=O)[C@@H](NC(=O)C2(F)CC2)C(C)(C)C)CC1 [VZ185]"
  log10(solubility at 1 h): 1.70
- compound: "COc1cc(C(=O)NCCOCCOCCOCC(=O)N[C@H](C(=O)N2C[C@@H](O)C[C@H]2C(=O)NCc2ccc(-c3scnc3C)cc2)C(C)(C)C)ccc1Nc1ncc(C(F)(F)F)c(Oc2cccc3c2C(=O)CC3)n1 [BI-4206]"
  log10(solubility at 1 h): -0.24

**Q:** Look at this compound and give its reported log10(solubility at 1 h). CC(C)(C)c1cnc(CSc2cnc(NC(=O)C3CCN(CC(=O)NCCOCCOCCOCCNc4cccc5c4C(=O)N(C4CCC(=O)NC4=O)C5=O)CC3)s2)o1 (stereo not shown) [THAL-SNS-032]
**A:** 1.72

###

Examples of compounds with documented solubility at 1 h follow.
procedure_summary: Thermodynamic solubility, shake-flask, 10 mM PBS (0.15 M KCl) pH 7, 25 °C, 1 h, HPLC-UV
condition_info: 25 °C, pH 7, aqueous buffer, thermodynamic from solid, Solubility average, thermodynamic, shake-flask, pH 7, 25 °C, 1 h
// note: answer is a bare numeric in µM

- compound: "COc1cc(C(=O)NCCOCCOCCOCCC(=O)Nc2cccc3c2C(=O)N(C2CCC(=O)NC2=O)C3=O)ccc1Nc1ncc(C(F)(F)F)c(Oc2cccc3c2C(=O)CC3)n1 (stereo not drawn)"
  solubility at 1 h / µM: 6.92

**Q:** Please look up its solubility at 1 h: Cc1ncsc1-c1ccc(CNC(=O)[C@@H]2C[C@@H](O)CN2C(=O)[C@@H](NC(=O)COCCOCCOCCNC(=O)C[C@@H]2N=C(c3ccc(Cl)cc3)c3c(sc(C)c3C)-n3c(C)nnc32)C(C)(C)C)cc1
**A:** 38

###

condition_info: log kw^IAM – clog kw^IAM
Overview of recorded ΔLog kw IAM for various molecules
Respond numerically, and do not add a unit to the figure.

- molecule: "Nc1cccc2c1C(=O)N(C1CCC(=O)NC1=O)C2=O (centres unmarked) [Pomalidomide]"
  ΔLog kw IAM: 0.64

Alright, here's another molecule for you.
**Q:** I would be grateful if you could share the reported ΔLog kw IAM for Cc1ncsc1-c1ccc(CNC(=O)[C@@H]2C[C@@H](O)CN2C(=O)[C@@H](N)C(C)(C)C)cc1.Cl [S,R,S-AHPC HCl] .
**A:** 2.34

###

procedure_summary: Thermodynamic solubility, shake-flask, 10 mM PBS (0.15 M KCl) pH 7, 25 °C, 1 h, HPLC-UV
condition_info: pH 7, aqueous buffer, thermodynamic from solid
Reported solubility thermodynamic at 1 h values for the following compounds.

**Q:** Field request: solubility thermodynamic at 1 h | item: Cc1ncsc1-c1ccc(CNC(=O)[C@@H]2C[C@H](O)CN2C(=O)[C@@H](NC(=O)C2(F)CC2)C(C)(C)C)c(OCCOc2ccc(CN3CCN(c4cc(-c5ccccc5O)nnc4N)CC3)cc2)c1 [CisACBI1]
**A:** < 0.817 µg/mL

**Q:** solubility thermodynamic at 1 h lookup needed for COc1cc(C(=O)NCCOCCOCCOCC(=O)N[C@H](C(=O)N2C[C@@H](O)C[C@H]2C(=O)NCc2ccc(-c3scnc3C)cc2)C(C)(C)C)ccc1Nc1ncc(C(F)(F)F)c(Oc2cccc3c2C(=O)CC3)n1 [BI-4206] , thanks.
**A:** 0.606 µg/mL

**Q:** For the compound shown here, Cc1sc2c(c1C)C(c1ccc(Cl)cc1)=N[C@@H](CC(=O)Nc1ccc(OCCOCCOCCOCCNc3cccc4c3C(=O)N(C3CCC(=O)NC3=O)C4=O)cc1)c1nnc(C)n1-2 (stereo partly drawn) [ARV-825] , give the reported solubility thermodynamic at 1 h.
**A:** < 0.29 µg/mL

###

# maps each entry to its solubility thermodynamic at 1 h
procedure_summary: Thermodynamic solubility, shake-flask, 10 mM PBS (0.15 M KCl) pH 7, 25 °C, 1 h, HPLC-UV
condition_info: pH 7, aqueous buffer, thermodynamic from solid

- molecule: "Cc1ncsc1-c1ccc(CNC(=O)[C@@H]2C[C@@H](O)CN2C(=O)[C@@H](NC(=O)C2(F)CC2)C(C)(C)C)c(OCCOc2ccc(CN3CCN(c4cc(-c5ccccc5O)nnc4N)CC3)cc2)c1 [ACBI1]"
  solubility thermodynamic at 1 h: "< 0.68 µg/mL"
- molecule: "O=C(CCCCC(=O)NCCN1C(=O)c2cccc3c(Sc4ccc(Br)cc4)ccc(c23)C1=O)NCCCCCCNc1cccc2c1C(=O)N(C1CCC(=O)NC1=O)C2=O (stereo not drawn) [Mcl1 degrader-1]"
  solubility thermodynamic at 1 h: "< 0.793 µg/mL"

**Q:** Data request, read-out solubility thermodynamic at 1 h, for O=C1CCC(N2Cc3c(C#CCCCNC(=O)c4ccc(NC(=O)[C@@H]5NC6(CCCCC6)[C@@]6(C(=O)Nc7cc(Cl)ccc76)[C@H]5c5cccc(Cl)c5F)cc4)cccc3C2=O)C(=O)N1 (stereo partly drawn) [MD-224]
**A:** < 0.289 µg/mL

###

procedure_summary: physchem
condition_info: pH 7
Entries and their chromatographic logD values follow.
Would you mind answering with just the numeric figure?

Guide cases for chromatographic logD, answers given:
- compound: "Cc1sc2c(c1C)C(c1ccc(Cl)cc1)=N[C@@H](CC(=O)O)c1nnc(C)n1-2"
  experimental_result: 0.08
- compound: "Cc1ncsc1-c1ccc(CNC(=O)[C@@H]2C[C@@H](O)CN2C(=O)[C@@H](N)C(C)(C)C)cc1.Cl [S,R,S-AHPC HCl]"
  experimental_result: 0.56
- compound: "Cc1ncsc1-c1ccc(CNC(=O)[C@@H]2C[C@H](O)CN2C(=O)[C@@H](N)C(C)(C)C)cc1.Cl.Cl [S,S,S-AHPC 2HCl]"
  experimental_result: 0.91

Please find the next compound below.
**Q:** Requested read-out: chromatographic logD. Entry: CC(=O)N1c2ccc(-c3ccc(C(=O)O)cc3)cc2[C@H](Nc2ccc(Cl)cc2)C[C@@H]1C
**A:** 0.3

###

Recorded solubility at 1 h values for a group of compounds are listed next.
procedure_summary: Thermodynamic solubility, shake-flask, 10 mM PBS (0.15 M KCl) pH 7, 25 °C, 1 h, HPLC-UV
condition_info: 25 °C, pH 7, aqueous buffer, thermodynamic from solid, Solubility average, thermodynamic, shake-flask, pH 7, 25 °C, 1 h
Give the value, in units of µM, as a plain number.

**Q:** Need solubility at 1 h of COc1cc(C(=O)NCCOCCOCCOCC(=O)N[C@H](C(=O)N2C[C@H](O)C[C@H]2C(=O)NCc2ccc(-c3scnc3C)cc2)C(C)(C)C)ccc1Nc1ncc(C(F)(F)F)c(Oc2cccc3c2C(=O)CC3)n1 , thanks.
**A:** 2.63

**Q:** Param item = COc1cc2ncnc(Nc3ccc(F)c(Cl)c3)c2cc1OCCCCCOCCOCCC(=O)N[C@H](C(=O)N1C[C@H](O)C[C@H]1C(=O)NCc1ccc(-c2scnc2C)cc1)C(C)(C)C ; retrieve measured solubility at 1 h.
**A:** 1.23

**Q:** Any idea what its solubility at 1 h is? The compound is CC(=O)c1c(C)c2cnc(Nc3ccc(N4CCN(CCOCCOCCOCCNC(=O)COc5cccc6c5C(=O)N(C5CCC(=O)NC5=O)C6=O)CC4)cn3)nc2n(C2CCCC2)c1=O (stereo not shown)
**A:** 17.8

Origin of values: paper PMC9574862
